Measurement target: MRSA Pyk (Staphylococcus aureus, UniProt Q6GG09)
Sequence (Q6GG09 whole entry): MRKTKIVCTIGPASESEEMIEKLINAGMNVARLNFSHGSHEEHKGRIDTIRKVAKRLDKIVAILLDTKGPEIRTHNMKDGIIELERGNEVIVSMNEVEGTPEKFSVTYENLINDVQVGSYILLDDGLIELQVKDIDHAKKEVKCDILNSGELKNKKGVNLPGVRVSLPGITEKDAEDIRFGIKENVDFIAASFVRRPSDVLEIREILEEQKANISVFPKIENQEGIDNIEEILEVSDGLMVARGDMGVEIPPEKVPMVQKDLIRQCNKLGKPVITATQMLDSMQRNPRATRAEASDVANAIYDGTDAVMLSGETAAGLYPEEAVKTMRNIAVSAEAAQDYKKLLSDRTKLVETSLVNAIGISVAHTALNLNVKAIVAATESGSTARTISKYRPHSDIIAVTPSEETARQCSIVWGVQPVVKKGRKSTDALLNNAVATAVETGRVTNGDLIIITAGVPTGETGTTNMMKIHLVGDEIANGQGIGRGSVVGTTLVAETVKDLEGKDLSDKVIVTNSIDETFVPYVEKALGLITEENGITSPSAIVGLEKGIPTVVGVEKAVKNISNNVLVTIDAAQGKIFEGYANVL
Protocol details: MRSA pyruvate kinase (PK) activity, continuous LDH-coupled assay
So I've got a bunch of molecules here, and I need their IC50 values.

Problem: Note down IC50 recorded for N.O=C(O)CON=C(c1c(-c2cc3cc(Cl)ccc3[nH]2)[nH]c2cc(Br)ccc12)C(F)(F)F (racemic)
Result: < 100 nM

Problem: Note down IC50 recorded for O=C(NCCN1CCN[C@H](C(=O)O)C1)c1c(-c2cc3cc(Cl)ccc3[nH]2)[nH]c2cc(Br)ccc12
Result: < 100 nM

Problem: Note down IC50 recorded for O=C(O)CCC(=O)N1CCN(CCNC(=O)c2c(/C=C/c3ccc(Cl)cc3)[nH]c3cc(Br)ccc23)CC1
Result: 100 to 1000 nM

Problem: Note down IC50 recorded for C[n+]1ccccc1CCNC(=O)c1c(-c2cc3cc(Cl)ccc3[nH]2)[nH]c2cc(Br)ccc12
Result: < 100 nM

Problem: Note down IC50 recorded for CCNCCNC(=O)c1c(-c2cc3cc(Cl)ccc3[nH]2)[nH]c2cc(Br)ccc12
Result: < 100 nM

Problem: Note down IC50 recorded for O=C(O)CNC(=O)c1c(-c2cc3cc(Cl)ccc3[nH]2)[nH]c2cc(Br)ccc12
Result: < 100 nM

Problem: Note down IC50 recorded for C[N+](C)(C)CCON=C(c1c(-c2cc3cc(Cl)ccc3[nH]2)[nH]c2cc(Br)ccc12)C(F)(F)F (racemic)
Result: < 100 nM

Problem: Note down IC50 recorded for CNC(=O)C(=O)c1c(CCc2ccc(Cl)cc2)[nH]c2cc(Br)ccc12
Result: > 1000 nM

Problem: Note down IC50 recorded for COc1ccc(CCc2[nH]c3cc(Br)ccc3c2CCO)nc1
Result: > 1000 nM

Problem: Note down IC50 recorded for O=C(c1c(CCc2ccc(Cl)cc2)[nH]c2cc(Br)ccc12)N1CCOCC1
Result: > 1000 nM

Problem: Note down IC50 recorded for CN(C)c1cc[n+](CCCNC(=O)c2c(-c3cc4cc(Cl)ccc4[nH]3)[nH]c3cc(Br)ccc23)cc1
Result: < 100 nM

Problem: Note down IC50 recorded for ON=C(c1c(CCc2ccc(Cl)cc2)[nH]c2cc(Br)ccc12)C(F)(F)F (racemic)
Result: > 1000 nM

Problem: Note down IC50 recorded for CN1CCN(CCNC(=O)c2c(C(=O)Nc3ccc(Cl)cc3)[nH]c3cc(Br)ccc23)CC1
Result: < 100 nM

Problem: Note down IC50 recorded for O=C(NCCC[n+]1ccc2ccccc2c1)c1c(-c2cc3cc(Cl)ccc3[nH]2)[nH]c2cc(Br)ccc12
Result: < 100 nM

Problem: Note down IC50 recorded for O=C(c1c(/C=C/c2ccc(Cl)cc2)[nH]c2cc(Br)ccc12)C1CCOCC1
Result: < 100 nM

----------
Measurement target: MRSA Pyk (Staphylococcus aureus)
Protocol details: MRSA pyruvate kinase (PK) activity, continuous LDH-coupled assay
pIC50: −log10 of the molar value.
Endpoint label: pIC50

Problem: // output pIC50; input N#Cc1c(/C=C/c2ccc(Cl)cc2)[nH]c2cc(Br)ccc12 ; system MRSA Pyk (Staphylococcus aureus)
Result: < 6.00

Problem: // output pIC50; input O=C(NCc1ccccc1)c1cc(Br)cc2[nH]c(/C=C/c3ccc(Cl)cc3)cc12 ; system MRSA Pyk (Staphylococcus aureus)
Result: 6.00 to 7.00

Problem: // output pIC50; input O=C(c1c(CCc2ccc(Cl)cc2)[nH]c2cc(Br)ccc12)C1CCOCC1 ; system MRSA Pyk (Staphylococcus aureus)
Result: > 7.00

Problem: // output pIC50; input O=C(c1c(-c2cc3ccccc3s2)[nH]c2cc(Br)ccc12)N1CCOCC1 ; system MRSA Pyk (Staphylococcus aureus)
Result: < 6.00

Problem: // output pIC50; input CN(C)CCC(=O)c1c(/C=C/c2ccc(Cl)cc2)[nH]c2cc(Br)ccc12.Cl [Compound 6, Hydrochloride] ; system MRSA Pyk (Staphylococcus aureus)
Result: 6.00 to 7.00

Problem: // output pIC50; input COCC(=O)N1CCCN(CCNC(=O)c2c(-c3cc4cc(Cl)ccc4[nH]3)[nH]c3cc(Br)ccc23)CC1 ; system MRSA Pyk (Staphylococcus aureus)
Result: > 7.00

Problem: // output pIC50; input CN(C)CCC(=O)c1c(/C=C/c2cn3ccccc3n2)[nH]c2cc(Br)ccc12 ; system MRSA Pyk (Staphylococcus aureus)
Result: 6.00 to 7.00

Problem: // output pIC50; input O=C(c1c(/C=C/c2ccc(Cl)cc2)[nH]c2cc(Br)ccc12)N1CCNCC1 ; system MRSA Pyk (Staphylococcus aureus)
Result: 6.00 to 7.00

The values you see were collected from patent US20180312493A1.
